experiment: Toxicity in sheep erythrocytes assessed as hemolysis; assay type: cell-based, Ovis aries, Erythrocyte; conditions: sheep erythrocytes, read-out: HD50 (the source's name)
measuredAttribute: log10 HC50 (log10 of the value in µM)
In our notation, the value equals log10 of HC50 in µM.

| compound | log10 HC50 |
| --- | --- |
| CC1(C)CC[C@]2(C(=O)O[C@@H]3O[C@H](CO)[C@@H](O)[C@H](O)[C@H]3O)CC[C@]3(C)C(=CC[C@@H]4[C@@]5(C)CC[C@H](O[C@@H]6O[C@H](C(=O)O)[C@@H](O)[C@H](O[C@@H]7O[C@H](CO)[C@H](O)[C@H](O)[C@H]7O)[C@H]6O)[C@@](C)(CO)[C@@H]5CC[C@]43C)[C@@H]2C1 | 2.49 |
| CC1(C)CC[C@]2(C(=O)O)CC[C@]3(C)C(=CC[C@@H]4[C@@]5(C)C[C@H](O)[C@H](O[C@@H]6O[C@H](C(=O)O)[C@@H](O)[C@H](O[C@@H]7O[C@H](CO)[C@H](O)[C@H](O)[C@H]7O)[C@H]6O)[C@@](C)(CO)[C@@H]5CC[C@]43C)[C@@H]2C1 | 1.82 |
| COC(=O)[C@H]1O[C@@H](O[C@H]2[C@@H](O)C[C@]3(C)[C@H]4CC=C5[C@@H]6CC(C)(C)CC[C@]6(C(=O)O)CC[C@@]5(C)[C@]4(C)CC[C@H]3C2(C)C)[C@H](O)[C@@H](O[C@@H]2O[C@H](CO)[C@H](O)[C@H](O)[C@H]2O)[C@@H]1O | 2.20 |
| CC1(C)CC[C@]2(C(=O)O)CC[C@]3(C)C(=CC[C@@H]4[C@@]5(C)C[C@H](O)[C@H](O[C@@H]6O[C@H](CO)[C@@H](O)[C@H](O[C@@H]7O[C@H](CO)[C@H](O)[C@H](O)[C@H]7O)[C@H]6O)[C@@](C)(CO)[C@@H]5CC[C@]43C)[C@@H]2C1 | 1.26 |
| CC1(C)CC[C@]2(C(=O)O)CC[C@]3(C)C(=CC[C@@H]4[C@@]5(C)CC[C@H](O[C@@H]6O[C@H](CO)[C@@H](O)[C@H](O[C@@H]7O[C@H](CO)[C@H](O)[C@H](O)[C@H]7O)[C@H]6O)[C@@](C)(CO)[C@@H]5CC[C@]43C)[C@@H]2C1 | 1.75 |
| CC1(C)CC[C@]2(C(=O)O)CC[C@]3(C)C(=CC[C@@H]4[C@@]5(C)CC[C@H](O[C@@H]6O[C@H](C(=O)O)[C@@H](O)[C@H](O)[C@H]6O)[C@@](C)(CO)C5CC[C@]43C)[C@@H]2C1 (some centres undefined) | 1.97 |

(Q) Please look at this compound and report its log10 HC50: CC1(C)CC[C@]2(C(=O)O)CC[C@]3(C)C(=CC[C@@H]4[C@@]5(C)CC[C@H](O[C@@H]6O[C@H](C(=O)O)[C@@H](O)[C@H](O[C@@H]7O[C@H](CO)[C@H](O)[C@H](O)[C@H]7O)[C@H]6O)C(C)(C)[C@@H]5CC[C@]43C)[C@@H]2C1 [GLYCOSIDE D]
(A) 1.28

(Q) Respond only with log10 HC50 recorded for "CC1(C)CC[C@]2(C(=O)O)CC[C@]3(C)C(=CC[C@@H]4[C@@]5(C)C[C@H](O)[C@H](O[C@@H]6O[C@H](C(=O)O)[C@@H](O)[C@H](O[C@@H]7O[C@H](CO)[C@H](O)[C@H](O)[C@H]7O)[C@H]6O)C(C)(C)[C@@H]5CC[C@]43C)[C@@H]2C1"
(A) 1.51

(Q) Please look at this compound and report its log10 HC50: "CC1(C)CC[C@]2(C(=O)O)CC[C@]3(C)C(=CC[C@@H]4[C@@]5(C)CC[C@H](O[C@@H]6O[C@H](C(=O)O)[C@@H](O)[C@H](O[C@@H]7O[C@H](CO)[C@H](O)[C@H](O)[C@H]7O)[C@H]6O)[C@@](C)(CO)[C@@H]5CC[C@]43C)[C@@H]2C1"
(A) 1.65

====

test: Toxicity in sheep erythrocytes assessed as hemolysis at >500 ug/mL; type: cell-based, Ovis aries, Erythrocyte; conditions: read-out: Activity
measuredAttribute: hemolysis (%)
Just the number in %, nothing appended.

(Q) Please report hemolysis for the following molecule: "CC1(C)CC[C@]2(C(=O)O[C@@H]3O[C@H](CO)[C@@H](O)[C@H](O)[C@H]3O)CC[C@]3(C)C(=CC[C@@H]4[C@@]5(C)C[C@H](O)[C@H](O[C@@H]6O[C@H](CO)[C@@H](O)[C@H](O[C@@H]7O[C@H](CO)[C@H](O)[C@H](O)[C@H]7O)[C@H]6O)[C@@](C)(CO)[C@@H]5CC[C@]43C)[C@@H]2C1"
(A) 10

====

Reported HD100 is given for each of the following compounds.
experiment: Toxicity in sheep erythrocytes assessed as hemolysis; type: cell-based, Ovis aries, Erythrocyte; conditions: erythrocyte
Provide only the numeric value, understood in µM.

(Q) Provide one value: measured HD100 of "CC1(C)CC[C@]2(C(=O)O)CC[C@]3(C)C(=CC[C@@H]4[C@@]5(C)CC[C@H](O[C@@H]6O[C@H](C(=O)O)[C@@H](O)[C@H](O[C@@H]7O[C@H](CO)[C@H](O)[C@H](O)[C@H]7O)[C@H]6O)[C@@](C)(CO)[C@@H]5CC[C@]43C)[C@@H]2C1"
(A) 93

(Q) Identify the reported HD100 for the following entry. "COC(=O)[C@H]1O[C@@H](O[C@H]2[C@@H](O)C[C@]3(C)[C@H]4CC=C5[C@@H]6CC(C)(C)CC[C@]6(C(=O)O)CC[C@@]5(C)[C@]4(C)CC[C@H]3C2(C)C)[C@H](O)[C@@H](O[C@@H]2O[C@H](CO)[C@H](O)[C@H](O)[C@H]2O)[C@@H]1O"
(A) 303

(Q) Identify measured HD100 associated with "CC1(C)CC[C@]2(C(=O)O[C@@H]3O[C@H](CO)[C@@H](O)[C@H](O)[C@H]3O)CC[C@]3(C)C(=CC[C@@H]4[C@@]5(C)CC[C@H](O[C@@H]6O[C@H](C(=O)O)[C@@H](O)[C@H](O[C@@H]7O[C@H](CO)[C@H](O)[C@H](O)[C@H]7O)[C@H]6O)[C@@](C)(CO)[C@@H]5CC[C@]43C)[C@@H]2C1"
(A) 514

(Q) Report HD100, nothing else, for this compound: "CC1(C)CC[C@]2(C(=O)O)CC[C@]3(C)C(=CC[C@@H]4[C@@]5(C)CC[C@H](O[C@@H]6O[C@H](CO)[C@@H](O)[C@H](O[C@@H]7O[C@H](CO)[C@H](O)[C@H](O)[C@H]7O)[C@H]6O)[C@@](C)(CO)[C@@H]5CC[C@]43C)[C@@H]2C1"
(A) 94

(Q) Indicate its recorded HD100; the compound in question is CC1(C)CC[C@]2(C(=O)O)CC[C@]3(C)C(=CC[C@@H]4[C@@]5(C)CC[C@H](O[C@@H]6O[C@H](C(=O)O)[C@@H](O)[C@H](O[C@@H]7O[C@H](CO)[C@H](O)[C@H](O)[C@H]7O)[C@H]6O)C(C)(C)[C@@H]5CC[C@]43C)[C@@H]2C1 [GLYCOSIDE D]
(A) 31

(Q) Return value of HD100 for input "CC1(C)CC[C@]2(C(=O)O)CC[C@]3(C)C(=CC[C@@H]4[C@@]5(C)C[C@H](O)[C@H](O[C@@H]6O[C@H](C(=O)O)[C@@H](O)[C@H](O[C@@H]7O[C@H](CO)[C@H](O)[C@H](O)[C@H]7O)[C@H]6O)[C@@](C)(CO)[C@@H]5CC[C@]43C)[C@@H]2C1" , no commentary.
(A) 121

(Q) Check the records and state HD100 for "CC1(C)CC[C@]2(C(=O)O)CC[C@]3(C)C(=CC[C@@H]4[C@@]5(C)C[C@H](O)[C@H](O[C@@H]6O[C@H](CO)[C@@H](O)[C@H](O[C@@H]7O[C@H](CO)[C@H](O)[C@H](O)[C@H]7O)[C@H]6O)[C@@](C)(CO)[C@@H]5CC[C@]43C)[C@@H]2C1"
(A) 24

(Q) Return HD100 (reported value) for this compound: "CC1(C)CC[C@]2(C(=O)O)CC[C@]3(C)C(=CC[C@@H]4[C@@]5(C)C[C@H](O)[C@H](O[C@@H]6O[C@H](C(=O)O)[C@@H](O)[C@H](O[C@@H]7O[C@H](CO)[C@H](O)[C@H](O)[C@H]7O)[C@H]6O)C(C)(C)[C@@H]5CC[C@]43C)[C@@H]2C1"
(A) 49

(Q) Name the recorded HD100 of the item CC1(C)CC[C@]2(C(=O)O)CC[C@]3(C)C(=CC[C@@H]4[C@@]5(C)CC[C@H](O[C@@H]6O[C@H](C(=O)O)[C@@H](O)[C@H](O)[C@H]6O)[C@@](C)(CO)C5CC[C@]43C)[C@@H]2C1 (stereo not given in full) in your answer.
(A) 116
